Where do the numbers come from? From patent US10538555B2.

Target: Human PD-L1/PD-1 (Homo sapiens, UniProt Q9NZQ7)
Construct: TVMV protease cleavage site (C); made in house; host or cells: HEK293T cells
Sequence (Q9NZQ7 with tags, fused parts or gaps): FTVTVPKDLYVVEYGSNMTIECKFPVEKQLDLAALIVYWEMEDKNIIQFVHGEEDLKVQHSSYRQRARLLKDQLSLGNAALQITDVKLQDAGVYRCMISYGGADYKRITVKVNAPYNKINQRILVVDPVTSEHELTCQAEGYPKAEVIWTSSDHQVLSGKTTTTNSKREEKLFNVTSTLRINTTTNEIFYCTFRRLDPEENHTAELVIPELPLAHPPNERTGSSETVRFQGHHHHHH
Assay: HTRF Human PD-L1/PD-1 binding assay (PD-1-Ig/PD-L1-His)
Conditions: PD-L1-His 10 nM, PD-1-Ig 20 nM; class symbol; read-out: HTRF Human PD-L1/PD-1 Binding Assay IC50 Range
Where a SMILES comes first, the peptide text is derived from it. Bridges are numbered along the chain shown (N, C = ends). [ ]: non-standard residue; d: D form. ξ: configuration not given here. Bta = N[C@@H](Cc1csc2ccccc12)C(=O)O; Hyp = O=C(O)[C@@H]1C[C@@H](O)CN1; NMeNle = CCCC[C@H](NC)C(=O)O; Pip = O=C(O)[C@@H]1CCCCN1; NMeA = CN[C@@H](C)C(=O)O; Dap = NC[C@H](N)C(=O)O; ξC = NC(CS)C(=O)O
Here the recorded IC50 is given for each entry.

Examples with answers:
CCCC[C@H]1C(=O)N(C)[C@@H](CCCC)C(=O)N[C@@H](C)C(=O)N[C@H](C(=O)NCC(N)=O)CSCC(=O)N[C@@H](Cc2ccc(O)cc2)C(=O)N2CCCC[C@H]2C(=O)N[C@@H](CC(=O)O)C(=O)N2CCC[C@H]2C(=O)N[C@@H](CN)C(=O)N[C@@H](CC(C)C)C(=O)N2C[C@H](O)C[C@H]2C(=O)N[C@@H](Cc2c[nH]c3ccccc23)C(=O)N[C@@H](CO)C(=O)N[C@@H](Cc2c[nH]c3ccccc23)C(=O)N1C [Example 1523] ({CH2CO}-Y[Pip]DP[Dap]L[Hyp]WSW[NMeNle][NMeNle]ACG-NH2; thioether N-14)
1 to 9.9 nM
CCCC[C@H]1C(=O)N(C)[C@@H](CCCC)C(=O)N[C@@H](C)C(=O)NC(C(=O)NCC(N)=O)CSCC(=O)N[C@@H](Cc2ccc(O)cc2)C(=O)N(C)[C@@H](C)C(=O)N[C@@H](CC(N)=O)C(=O)N2CCC[C@H]2C(=O)N[C@@H](CC(N)=O)C(=O)N[C@@H](CC(C)C)C(=O)N2CCC[C@H]2C(=O)N[C@@H](Cc2c[nH]c3ccccc23)C(=O)N[C@@H](CO)C(=O)N[C@@H](Cc2csc3ccccc23)C(=O)N1C (stereo partly shown) [Example 9133] ({CH2CO}-Y[NMeA]NPNLPWS[Bta][NMeNle][NMeNle]A[ξC]G-NH2; thioether N-14)
1 to 9.9 nM
CCCC[C@H]1C(=O)N(C)[C@@H](CCCC)C(=O)N[C@@H](C)C(=O)N[C@H](C(=O)NCC(N)=O)CSCC(=O)N[C@@H](Cc2ccc(O)cc2)C(=O)N(C)[C@@H](C)C(=O)N[C@@H](CC(N)=O)C(=O)N2CCC[C@H]2C(=O)N[C@@H](Cc2cnc[nH]2)C(=O)N[C@@H](CCC(N)=O)C(=O)N2C[C@H](O)C[C@H]2C(=O)N[C@@H](Cc2c[nH]c3ccccc23)C(=O)N[C@@H](CO)C(=O)N[C@@H](Cc2csc3ccccc23)C(=O)N1C [Example 1542] ({CH2CO}-Y[NMeA]NPHQ[Hyp]WS[Bta][NMeNle][NMeNle]ACG-NH2; thioether N-14)
10 to 99.9 nM

Now for a further molecule.
In: Tell me measured IC50 for CCCC[C@H]1C(=O)N(C)[C@@H](CCCC)C(=O)N[C@@H](C)C(=O)NC(C(=O)NCC(N)=O)CSCC(=O)N[C@@H](Cc2ccc(O)cc2)C(=O)N(C)[C@@H](C)C(=O)N[C@@H](CC(N)=O)C(=O)N2CCC[C@H]2C(=O)N[C@@H](CC(N)=O)C(=O)N[C@@H](CC(C)C)C(=O)N2CCC[C@H]2C(=O)N[C@@H](Cc2c[nH]c3ccccc23)C(=O)N[C@@H](CO)C(=O)N[C@@H](Cc2c[nH]c3ccccc23)C(=O)N1C (stereo partly shown) [Example 9132] ({CH2CO}-Y[NMeA]NPNLPWSW[NMeNle][NMeNle]A[ξC]G-NH2; thioether N-14) please.
Out: 10 to 99.9 nM

====

Target: Human PD-L1/PD-1 (Homo sapiens, UniProt Q9NZQ7)
Construct: TVMV protease cleavage site (C); made in house; host or cells: HEK293T cells
Assay: HTRF Human PD-L1/PD-1 binding assay (PD-1-Ig/PD-L1-His)
Conditions: PD-L1-His 10 nM, PD-1-Ig 20 nM; class symbol; read-out: HTRF Human PD-L1/PD-1 Binding Assay IC50 Range
pIC50: −log10 of the molar value. Where a SMILES comes first, the peptide text is derived from it. Bridges are numbered along the chain shown (N, C = ends). [ ]: non-standard residue; d: D form. ξ: configuration not given here. Hyp = O=C(O)[C@@H]1C[C@@H](O)CN1; NMeNle = CCCC[C@H](NC)C(=O)O; dNle = CCCC[C@@H](N)C(=O)O; NMeA = CN[C@@H](C)C(=O)O; Orn = NCCC[C@H](N)C(=O)O; ξC = NC(CS)C(=O)O
readout: pIC50

CCCC[C@H]1NC(=O)[C@H](Cc2c[nH]c3ccccc23)NC(=O)[C@H](CO)NC(=O)[C@H](Cc2c[nH]c3ccccc23)NC(=O)[C@@H]2C[C@@H](O)CN2C(=O)[C@H](CCCN)NC(=O)[C@H](Cc2cnc[nH]2)NC(=O)[C@@H]2CCCN2C(=O)[C@H](CC(=O)O)NC(=O)[C@H](C)N(C)C(=O)[C@H](Cc2ccc(O)cc2)NC(=O)CSCC(C(=O)NCC(N)=O)NC(=O)[C@H](CCC(=O)O)NC(=O)[C@H](CCCC)N(C)C1=O (some centres unmarked) [Example 10130] ({CH2CO}-Y[NMeA]DPH[Orn][Hyp]WSW[dNle][NMeNle]E[ξC]G-NH2; thioether N-14)
5.00 to 6.00

Now for a further molecule.
In: Tell me measured pIC50 for CCCC[C@H]1C(=O)N(C)[C@@H](CCCC)C(=O)N[C@@H](CC(C)C)C(=O)NC(C(=O)NCC(N)=O)CSCC(=O)N[C@@H](Cc2ccc(O)cc2)C(=O)N(C)[C@@H](C)C(=O)N[C@@H](CC(N)=O)C(=O)N2CCC[C@H]2C(=O)N[C@@H](CC(N)=O)C(=O)N[C@@H](CC(C)C)C(=O)N2CCC[C@H]2C(=O)N[C@@H](Cc2c[nH]c3ccccc23)C(=O)N[C@@H](CO)C(=O)N[C@@H](Cc2c[nH]c3ccccc23)C(=O)N1C (some centres unmarked) [Example 9161] ({CH2CO}-Y[NMeA]NPNLPWSW[NMeNle][NMeNle]L[ξC]G-NH2; thioether N-14) please.
Out: 8.00 to 9.00

====

Target: Human PD-L1/PD-1 (Homo sapiens, UniProt Q9NZQ7)
Construct: TVMV protease cleavage site (C); made in house; host or cells: HEK293T cells
Test: HTRF Human PD-L1/PD-1 binding assay (PD-1-Ig/PD-L1-His)
Settings: PD-L1-His 10 nM, PD-1-Ig 20 nM; class symbol; read-out: HTRF Human PD-L1/PD-1 Binding Assay IC50 Range
Excerpt: Methods for Testing the Ability of Macrocyclic Peptides to Compete for the Binding of PD-1 to PD-L1 Using Homogenous Time-Resolved Fluorescence (HTRF) Binding Assays The ability of the macrocyclic peptides of the present disclosure to bind to PD-L1 was investigated using a PD-1/PD-L1 Homogenous Time-Resolved Fluorescence (HTRF) binding assay. Homogenous Time-Resolved Fluorescence (HTRF) Assays of Binding of Soluble PD-1 to Soluble PD-L1. […]
Where a SMILES comes first, the peptide text is derived from it. Bridges are numbered along the chain shown (N, C = ends). [ ]: non-standard residue; d: D form. ξ: configuration not given here. Bta = N[C@@H](Cc1csc2ccccc12)C(=O)O; Hyp = O=C(O)[C@@H]1C[C@@H](O)CN1; NMeNle = CCCC[C@H](NC)C(=O)O; hSer = N[C@@H](CCO)C(=O)O; NMeA = CN[C@@H](C)C(=O)O; ξC = NC(CS)C(=O)O
Here the recorded IC50 is given for each entry.

Examples with answers:
CCCC[C@H]1C(=O)N(C)[C@@H](CCCC)C(=O)N[C@@H](C)C(=O)N[C@H](C(=O)NCC(N)=O)CSCC(=O)N[C@@H](Cc2ccc(O)cc2)C(=O)N2CCCC[C@H]2C(=O)N[C@@H](CC(N)=O)C(=O)N2CCC[C@H]2C(=O)N[C@@H](Cc2cnc[nH]2)C(=O)N[C@@H](CCC(N)=O)C(=O)N2CCOC[C@H]2C(=O)N[C@@H](Cc2c[nH]c3ccccc23)C(=O)N[C@@H](CO)C(=O)N[C@@H](Cc2c[nH]c3ccccc23)C(=O)N1C [Example 1277]
10 to 99.9 nM
CCCC[C@H]1C(=O)N2C[C@H](O)C[C@@H]2C(=O)N[C@@H](CC(=O)O)C(=O)N[C@@H](C(C)C)C(=O)N(C)[C@@H](Cc2ccccc2)C(=O)N[C@@H](CC(N)=O)C(=O)N2C[C@H](O)C[C@@H]2C(=O)N[C@@H](Cc2c[nH]c3ccccc23)C(=O)N[C@@H](Cc2ccc(O)cc2)C(=O)N[C@@H](CC(C)C)C(=O)N[C@H](C(=O)NCC(N)=O)CSCC(=O)N[C@@H](Cc2ccc(F)c(F)c2)C(=O)N(C)[C@@H](Cc2ccccc2)C(=O)N1C [Example 9292]
1 to 9.9 nM
CCCC[C@H]1C(=O)N(C)[C@@H](CCCC)C(=O)N[C@@H](CCCNC(=N)N)C(=O)NC(C(=O)NCC(N)=O)CSCC(=O)N[C@@H](Cc2ccc(O)cc2)C(=O)N(C)[C@@H](C)C(=O)N[C@@H](CC(N)=O)C(=O)N2CCC[C@H]2C(=O)N[C@@H](CCO)C(=O)N[C@@H](CO)C(=O)N2C[C@H](O)C[C@H]2C(=O)N[C@@H](Cc2c[nH]c3ccccc23)C(=O)N[C@@H](CO)C(=O)N[C@@H](Cc2csc3ccccc23)C(=O)N1C (stereo partly shown) [Example 10023] ({CH2CO}-Y[NMeA]NP[hSer]S[Hyp]WS[Bta][NMeNle][NMeNle]R[ξC]G-NH2; thioether N-14)
10 to 99.9 nM

Now for a further molecule.
In: Tell me measured IC50 for CCCC[C@H]1C(=O)N(C)[C@@H](CCCC)C(=O)N[C@@H](CCCNC(=N)N)C(=O)NC(C(=O)NCC(N)=O)CSCC(=O)N[C@@H](Cc2ccc(O)cc2)C(=O)N(C)[C@@H](C)C(=O)N[C@@H](CC(N)=O)C(=O)N2CCC[C@H]2C(=O)N[C@@H](CC(N)=O)C(=O)N[C@@H](CC(C)C)C(=O)N2CCC[C@H]2C(=O)N[C@@H](Cc2c[nH]c3ccccc23)C(=O)N[C@@H](CCO)C(=O)N[C@@H](Cc2csc3ccccc23)C(=O)N1C (stereo partly shown) [Example 9129] ({CH2CO}-Y[NMeA]NPNLPW[hSer][Bta][NMeNle][NMeNle]R[ξC]G-NH2; thioether N-14) please.
Out: 1 to 9.9 nM
